Origin of measurements: ChEMBL document CHEMBL3588770

- Target Under Test: 5-hydroxytryptamine receptor 1A (Homo sapiens)
- Assay Notes: Displacement of [3H]-8-OH-DPAT from human cloned 5HT1A receptor expressed in HEK293 cells at 1 uM by scintillation counting analysis
- Type: cell-based
Quantity Measured: inhibition (%)

# Compound, Unit Of Measure, inhibition
rows = [
    ("COc1ccccc1N1CCN(CCCCN2C(=O)NC3(CCCc4ccccc43)C2=O)CC1 (centres undefined)", "%", 98),
    ("COc1ccccc1N1CCN(CCCCN2C(=O)NC3(CCc4ccccc43)C2=O)CC1 (centres undefined)", "%", 103),
    ("O=C1NC2(CCc3ccccc32)C(=O)N1CCCCN1CCN(c2cccc(Cl)c2)CC1 (centres undefined)", "%", 103),
    ("O=C1NC2(CCCc3ccccc32)C(=O)N1CCCCN1CCN(c2cccc(Cl)c2)CC1 (centres undefined)", "%", 99),
]
